Target: UniProt Q96GD4
Sequence (Q96GD4 whole entry): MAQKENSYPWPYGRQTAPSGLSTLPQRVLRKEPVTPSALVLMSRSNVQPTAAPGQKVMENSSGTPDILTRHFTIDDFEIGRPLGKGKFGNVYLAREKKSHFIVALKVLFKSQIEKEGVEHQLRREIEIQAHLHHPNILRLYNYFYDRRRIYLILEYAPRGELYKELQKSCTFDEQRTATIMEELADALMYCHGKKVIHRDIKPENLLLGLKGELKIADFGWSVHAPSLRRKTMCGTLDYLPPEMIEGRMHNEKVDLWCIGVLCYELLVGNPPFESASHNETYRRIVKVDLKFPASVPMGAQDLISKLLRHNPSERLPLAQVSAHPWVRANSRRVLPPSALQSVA
Test: Inhibition of recombinant full length human N-terminal GST-tagged Aurora B expressed in baculovirus infected Sf9 cells using myelin basic protein as substrate after 60 mins by ADP-Glo luminescence assay
ENDPOINT_NAME: pIC50
Give bare numbers, as −log10 of the molar value.

Completed entries (count: 4):
Value of pIC50 reported for the compound COc1ccc(C(=O)Nc2ccc(CNc3nc4ccc(OCCN5CCOCC5)cc4s3)cc2)cc1 is 6.15

According to the records, this compound O=C(Nc1ccc(Cl)cc1)Nc1ccc(CNc2nc3ccc(OCCN4CCOCC4)cc3s2)cc1 displays pIC50 of 6.92

Record O=C(Nc1cccc(CNc2nc3ccc(OCCN4CCOCC4)cc3s2)c1)c1ccc(Cl)cc1 , field pIC50: 5.21

Sure, the documented pIC50 for O=C(Nc1ccccc1)Nc1cccc(CNc2nc3ccc(OCCN4CCOCC4)cc3s2)c1 is 5.51

# ---- query compound ----
get_value(item= O=C(Nc1ccc(CNc2nc3ccc(OCCN4CCOCC4)cc3s2)cc1)c1cccc(Cl)c1 , readout=pIC50) returns 5.85
